- System: FGFR3 (human), P22607 [G697C]
- Sequence (P22607 whole entry G697C, looked up): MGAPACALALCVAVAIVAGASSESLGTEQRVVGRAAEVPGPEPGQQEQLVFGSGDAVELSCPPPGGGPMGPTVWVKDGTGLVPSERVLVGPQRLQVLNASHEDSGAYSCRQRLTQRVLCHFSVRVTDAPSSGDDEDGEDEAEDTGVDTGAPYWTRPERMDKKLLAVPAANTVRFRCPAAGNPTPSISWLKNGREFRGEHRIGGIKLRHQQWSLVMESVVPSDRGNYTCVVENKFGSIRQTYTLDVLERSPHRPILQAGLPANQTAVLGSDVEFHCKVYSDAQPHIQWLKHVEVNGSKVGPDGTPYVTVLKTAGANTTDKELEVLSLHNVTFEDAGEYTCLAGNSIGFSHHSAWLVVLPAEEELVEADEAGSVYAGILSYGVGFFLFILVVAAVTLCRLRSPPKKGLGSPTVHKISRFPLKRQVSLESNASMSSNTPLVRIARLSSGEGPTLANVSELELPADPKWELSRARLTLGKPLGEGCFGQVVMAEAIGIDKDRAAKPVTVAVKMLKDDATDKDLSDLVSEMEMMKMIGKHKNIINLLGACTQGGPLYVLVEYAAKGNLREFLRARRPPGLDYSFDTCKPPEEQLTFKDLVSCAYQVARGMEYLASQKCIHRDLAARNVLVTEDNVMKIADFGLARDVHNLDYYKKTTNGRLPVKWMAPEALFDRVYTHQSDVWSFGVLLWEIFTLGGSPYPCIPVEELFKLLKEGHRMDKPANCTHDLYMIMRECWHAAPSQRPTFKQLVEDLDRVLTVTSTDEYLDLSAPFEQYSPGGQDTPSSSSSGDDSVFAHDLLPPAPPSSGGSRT
- Assay info: KINOMEscan competition binding
- Conditions: compound 1.0 µM
Listed next: entries and their corresponding kinase still bound, per cent of control.
Unit % implied. Number only.

| Molecule | Unit descriptor | kinase still bound, per cent of control |
| --- | --- | --- |
| CN(C)C/C=C/C(=O)Nc1cccc(C(=O)Nc2ccc(Nc3nccc(/C(C#N)=C4\Nc5ccccc5S4)n3)cc2)c1 | % | 31 |

### Prompt Identify the reported kinase still bound, per cent of control for the following entry. `Cc1cc(NC(=O)c2cccc(NC(=O)/C=C/CN(C)C)c2)ccc1Nc1nccc(-c2cccnc2)n1`
### Response 100

### Prompt Note down kinase still bound, per cent of control recorded for `CN(C)C/C=C/C(=O)Nc1cccc(C(=O)Nc2ccc(Nc3nccc(-c4cccnc4)n3)cc2)c1`
### Response 100

### Prompt Quickly give me recorded kinase still bound, per cent of control for `CN(C)C/C=C/C(=O)Nc1cccc(C(=O)Nc2ccc(Nc3nccc(-c4c(-c5ccccc5)nn5ccccc45)n3)cc2)c1`
### Response 93

====

- Study target: YSK4 (human) (UniProt Q56UN5)
Measurement type: pKd
Answer as the number alone; pKd is minus log10 of concentration in mol/L.

### Prompt State measured pKd of the compound `CN(C)C/C=C/C(=O)Nc1cccc(C(=O)Nc2ccc(Nc3nccc(-c4cccnc4)n3)cc2)c1` with YSK4 (human) (UniProt Q56UN5).
### Response 8.32

====

Reported values of kinase still bound, per cent of control for individual entries
- System: EGFR (human), P00533 [752-759 del]
- Sequence (P00533 whole entry, looked up, stated change not applied): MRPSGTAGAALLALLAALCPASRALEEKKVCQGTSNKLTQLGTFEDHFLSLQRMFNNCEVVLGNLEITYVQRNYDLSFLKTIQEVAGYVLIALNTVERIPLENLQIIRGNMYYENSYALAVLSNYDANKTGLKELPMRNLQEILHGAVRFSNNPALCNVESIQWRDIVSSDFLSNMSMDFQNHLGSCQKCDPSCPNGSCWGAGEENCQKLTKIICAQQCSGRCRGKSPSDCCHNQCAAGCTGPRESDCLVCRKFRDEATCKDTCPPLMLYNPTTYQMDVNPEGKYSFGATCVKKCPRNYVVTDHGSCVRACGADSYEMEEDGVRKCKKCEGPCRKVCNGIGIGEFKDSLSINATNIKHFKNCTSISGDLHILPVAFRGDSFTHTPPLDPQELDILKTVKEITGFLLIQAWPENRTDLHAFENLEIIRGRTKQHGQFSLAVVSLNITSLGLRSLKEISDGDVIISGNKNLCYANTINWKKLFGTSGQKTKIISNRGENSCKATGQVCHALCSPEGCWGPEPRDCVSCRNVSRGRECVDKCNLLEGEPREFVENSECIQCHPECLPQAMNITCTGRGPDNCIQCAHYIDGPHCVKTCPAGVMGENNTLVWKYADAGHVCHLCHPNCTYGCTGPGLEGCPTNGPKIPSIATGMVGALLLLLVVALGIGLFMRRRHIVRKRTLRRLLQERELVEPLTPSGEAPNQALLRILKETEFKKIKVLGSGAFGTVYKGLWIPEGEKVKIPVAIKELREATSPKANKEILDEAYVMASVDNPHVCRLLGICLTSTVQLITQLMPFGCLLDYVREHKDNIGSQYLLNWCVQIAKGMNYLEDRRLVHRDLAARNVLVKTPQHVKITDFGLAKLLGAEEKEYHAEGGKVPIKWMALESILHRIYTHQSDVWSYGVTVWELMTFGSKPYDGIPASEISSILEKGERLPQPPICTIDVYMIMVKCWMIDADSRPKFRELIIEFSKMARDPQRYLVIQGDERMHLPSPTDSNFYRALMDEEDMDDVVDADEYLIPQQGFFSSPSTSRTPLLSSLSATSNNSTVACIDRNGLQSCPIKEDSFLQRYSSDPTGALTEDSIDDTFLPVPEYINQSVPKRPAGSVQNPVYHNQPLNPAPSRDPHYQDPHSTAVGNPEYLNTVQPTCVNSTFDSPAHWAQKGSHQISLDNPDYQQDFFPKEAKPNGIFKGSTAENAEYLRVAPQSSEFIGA
- Assay info: KINOMEscan competition binding
- Conditions: compound 1.0 µM
The reply should contain only the number, in %.

| Molecule | Experimental value |
| --- | --- |
| CN(C)C/C=C/C(=O)Nc1cccc(C(=O)Nc2ccc(Nc3nccc(/C(C#N)=C4\Nc5ccccc5S4)n3)cc2)c1 | 95 |
| CN(C)C/C=C/C(=O)Nc1cccc(C(=O)Nc2ccc(Nc3nccc(-c4cccnc4)n3)cc2)c1 | 81 |

### Prompt Identify the reported kinase still bound, per cent of control for the following entry. `Cc1cc(NC(=O)c2cccc(NC(=O)/C=C/CN(C)C)c2)ccc1Nc1nccc(-c2cccnc2)n1`
### Response 79

### Prompt Look up and state reported kinase still bound, per cent of control for `CN(C)C/C=C/C(=O)Nc1cccc(C(=O)Nc2ccc(Nc3nccc(-c4c(-c5ccccc5)nn5ccccc45)n3)cc2)c1`
### Response 7.8

====

- Study target: MAP3K7 (human) (UniProt O43318)
- Assay info: KINOMEscan competition binding
- Conditions: compound 1.0 µM
As shown below, each of these compounds has a reported kinase still bound, per cent of control value.
The answer is to be given in %; state only the numeric part.

Past entries and their recorded results:
| Molecule | Experimental value |
| --- | --- |
| CN(C)C/C=C/C(=O)Nc1cccc(C(=O)Nc2ccc(Nc3nccc(-c4cccnc4)n3)cc2)c1 | 34 |
| CN(C)C/C=C/C(=O)Nc1cccc(C(=O)Nc2ccc(Nc3nccc(-c4c(-c5ccccc5)nn5ccccc45)n3)cc2)c1 | 47 |
| CN(C)C/C=C/C(=O)Nc1cccc(C(=O)Nc2ccc(Nc3nccc(/C(C#N)=C4\Nc5ccccc5S4)n3)cc2)c1 | 58 |

Next compound, please.
### Prompt Report its kinase still bound, per cent of control with MAP3K7 (human) (UniProt O43318) as the test system: `Cc1cc(NC(=O)c2cccc(NC(=O)/C=C/CN(C)C)c2)ccc1Nc1nccc(-c2cccnc2)n1`
### Response 61

====

Catalogue of kinase still bound, per cent of control values
- Study target: MAP4K5 (human)
- Assay info: KINOMEscan competition binding
- Conditions: compound 1.0 µM
Write down the value, and be sure its unit follows.

The following compounds have reported results that may help.
| Molecule | Study target | kinase still bound, per cent of control |
| --- | --- | --- |
| Cc1cc(NC(=O)c2cccc(NC(=O)/C=C/CN(C)C)c2)ccc1Nc1nccc(-c2cccnc2)n1 | MAP4K5 (human) | 100% |
| CN(C)C/C=C/C(=O)Nc1cccc(C(=O)Nc2ccc(Nc3nccc(/C(C#N)=C4\Nc5ccccc5S4)n3)cc2)c1 | MAP4K5 (human) | 100% |
| CN(C)C/C=C/C(=O)Nc1cccc(C(=O)Nc2ccc(Nc3nccc(-c4cccnc4)n3)cc2)c1 | MAP4K5 (human) | 52% |

API: the following record is the query input.
### Prompt Find kinase still bound, per cent of control for `CN(C)C/C=C/C(=O)Nc1cccc(C(=O)Nc2ccc(Nc3nccc(-c4c(-c5ccccc5)nn5ccccc45)n3)cc2)c1` on MAP4K5 (human) and write it down.
### Response 27%

====

Parameter: kinase still bound, per cent of control. Scope: all listed entries.
- Study target: PAK4 (human)
- Assay info: KINOMEscan competition binding
- Conditions: compound 1.0 µM
Give your result in % as a bare value.

| Molecule | Measurement type | Experimental value |
| --- | --- | --- |
| Cc1cc(NC(=O)c2cccc(NC(=O)/C=C/CN(C)C)c2)ccc1Nc1nccc(-c2cccnc2)n1 | kinase still bound, per cent of control | 100 |
| CN(C)C/C=C/C(=O)Nc1cccc(C(=O)Nc2ccc(Nc3nccc(-c4cccnc4)n3)cc2)c1 | kinase still bound, per cent of control | 79 |
| CN(C)C/C=C/C(=O)Nc1cccc(C(=O)Nc2ccc(Nc3nccc(/C(C#N)=C4\Nc5ccccc5S4)n3)cc2)c1 | kinase still bound, per cent of control | 100 |

### Prompt Tell us which kinase still bound, per cent of control value is on record for `CN(C)C/C=C/C(=O)Nc1cccc(C(=O)Nc2ccc(Nc3nccc(-c4c(-c5ccccc5)nn5ccccc45)n3)cc2)c1`
### Response 91

====

- Tested on: LRRK2 (human), Q5S007 [G2019S]
- Sequence (Q5S007 whole entry G2019S, looked up): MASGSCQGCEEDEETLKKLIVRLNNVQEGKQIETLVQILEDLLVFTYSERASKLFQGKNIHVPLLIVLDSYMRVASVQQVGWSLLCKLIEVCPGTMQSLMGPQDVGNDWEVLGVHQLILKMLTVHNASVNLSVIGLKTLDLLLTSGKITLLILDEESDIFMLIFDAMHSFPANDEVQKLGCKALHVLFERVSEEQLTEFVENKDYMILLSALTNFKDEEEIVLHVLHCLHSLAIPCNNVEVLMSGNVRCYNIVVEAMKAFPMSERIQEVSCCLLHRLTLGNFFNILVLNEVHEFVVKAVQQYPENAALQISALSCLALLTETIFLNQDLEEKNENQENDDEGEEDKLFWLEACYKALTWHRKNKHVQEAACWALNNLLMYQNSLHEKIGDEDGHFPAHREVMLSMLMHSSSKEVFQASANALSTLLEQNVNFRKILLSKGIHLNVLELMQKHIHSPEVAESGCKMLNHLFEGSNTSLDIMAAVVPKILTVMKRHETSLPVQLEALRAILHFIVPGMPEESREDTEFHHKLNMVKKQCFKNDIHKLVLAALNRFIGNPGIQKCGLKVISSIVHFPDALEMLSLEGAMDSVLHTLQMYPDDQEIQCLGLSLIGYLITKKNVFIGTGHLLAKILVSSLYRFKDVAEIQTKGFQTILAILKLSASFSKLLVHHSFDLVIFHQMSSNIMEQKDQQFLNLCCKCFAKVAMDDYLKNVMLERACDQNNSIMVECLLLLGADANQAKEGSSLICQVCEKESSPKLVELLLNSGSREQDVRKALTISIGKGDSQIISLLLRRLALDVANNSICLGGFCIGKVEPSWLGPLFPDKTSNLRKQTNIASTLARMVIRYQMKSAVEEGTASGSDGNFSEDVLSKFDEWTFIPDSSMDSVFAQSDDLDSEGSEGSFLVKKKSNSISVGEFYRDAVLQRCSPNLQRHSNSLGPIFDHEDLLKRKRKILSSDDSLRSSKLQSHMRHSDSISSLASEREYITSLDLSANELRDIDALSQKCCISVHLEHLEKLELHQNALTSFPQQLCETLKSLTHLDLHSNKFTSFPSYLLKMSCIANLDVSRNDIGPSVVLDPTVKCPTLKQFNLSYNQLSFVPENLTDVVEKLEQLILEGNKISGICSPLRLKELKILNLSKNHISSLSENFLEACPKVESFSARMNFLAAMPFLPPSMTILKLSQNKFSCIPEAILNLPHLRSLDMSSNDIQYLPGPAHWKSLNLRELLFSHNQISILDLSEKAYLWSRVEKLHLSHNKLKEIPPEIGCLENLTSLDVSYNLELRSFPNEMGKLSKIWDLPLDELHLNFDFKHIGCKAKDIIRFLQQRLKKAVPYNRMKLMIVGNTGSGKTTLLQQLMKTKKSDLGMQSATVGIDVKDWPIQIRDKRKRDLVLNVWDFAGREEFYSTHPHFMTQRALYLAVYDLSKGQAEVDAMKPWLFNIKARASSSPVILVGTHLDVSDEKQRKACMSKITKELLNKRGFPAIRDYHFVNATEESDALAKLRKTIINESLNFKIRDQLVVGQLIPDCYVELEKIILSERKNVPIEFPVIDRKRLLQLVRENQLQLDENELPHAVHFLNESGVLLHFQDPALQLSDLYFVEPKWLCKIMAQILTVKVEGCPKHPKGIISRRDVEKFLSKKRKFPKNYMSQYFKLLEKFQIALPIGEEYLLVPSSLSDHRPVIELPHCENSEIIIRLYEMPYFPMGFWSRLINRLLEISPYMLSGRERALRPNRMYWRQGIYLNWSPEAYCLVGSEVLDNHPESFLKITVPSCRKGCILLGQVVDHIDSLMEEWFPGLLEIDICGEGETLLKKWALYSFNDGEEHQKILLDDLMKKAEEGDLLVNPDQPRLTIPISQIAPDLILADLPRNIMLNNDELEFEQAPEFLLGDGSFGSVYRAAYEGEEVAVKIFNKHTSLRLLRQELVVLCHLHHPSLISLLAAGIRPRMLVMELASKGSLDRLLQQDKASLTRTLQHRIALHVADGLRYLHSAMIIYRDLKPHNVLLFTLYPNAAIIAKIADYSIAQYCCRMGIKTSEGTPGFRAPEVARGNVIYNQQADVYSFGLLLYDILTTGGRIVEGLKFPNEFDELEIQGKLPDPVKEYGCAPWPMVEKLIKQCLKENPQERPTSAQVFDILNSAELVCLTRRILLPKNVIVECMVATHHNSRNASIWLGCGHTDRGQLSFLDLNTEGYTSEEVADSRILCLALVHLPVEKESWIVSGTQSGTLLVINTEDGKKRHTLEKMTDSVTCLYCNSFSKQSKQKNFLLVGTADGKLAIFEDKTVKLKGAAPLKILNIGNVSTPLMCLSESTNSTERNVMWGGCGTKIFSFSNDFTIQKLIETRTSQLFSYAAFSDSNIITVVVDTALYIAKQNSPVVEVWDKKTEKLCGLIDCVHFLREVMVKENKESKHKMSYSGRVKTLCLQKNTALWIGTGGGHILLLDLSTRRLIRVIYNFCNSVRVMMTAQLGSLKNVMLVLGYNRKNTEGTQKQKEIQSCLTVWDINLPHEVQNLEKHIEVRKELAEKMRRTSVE
- Assay info: KINOMEscan competition binding
- Conditions: compound 1.0 µM
Some compounds, each annotated with its measured kinase still bound, per cent of control.
# value in %; strip the unit string

| Molecule | Study target | kinase still bound, per cent of control [%] |
| --- | --- | --- |
| CN(C)C/C=C/C(=O)Nc1cccc(C(=O)Nc2ccc(Nc3nccc(-c4cccnc4)n3)cc2)c1 | LRRK2 (human), Q5S007 [G2019S] | 51 |
| CN(C)C/C=C/C(=O)Nc1cccc(C(=O)Nc2ccc(Nc3nccc(-c4c(-c5ccccc5)nn5ccccc45)n3)cc2)c1 | LRRK2 (human), Q5S007 [G2019S] | 100 |
| Cc1cc(NC(=O)c2cccc(NC(=O)/C=C/CN(C)C)c2)ccc1Nc1nccc(-c2cccnc2)n1 | LRRK2 (human), Q5S007 [G2019S] | 67 |

### Prompt Name the recorded kinase still bound, per cent of control of the item `CN(C)C/C=C/C(=O)Nc1cccc(C(=O)Nc2ccc(Nc3nccc(/C(C#N)=C4\Nc5ccccc5S4)n3)cc2)c1` in your answer.
### Response 100

====

- Study target: CaMK1 (human) (UniProt Q14012)
- Sequence (Q14012 whole entry, looked up): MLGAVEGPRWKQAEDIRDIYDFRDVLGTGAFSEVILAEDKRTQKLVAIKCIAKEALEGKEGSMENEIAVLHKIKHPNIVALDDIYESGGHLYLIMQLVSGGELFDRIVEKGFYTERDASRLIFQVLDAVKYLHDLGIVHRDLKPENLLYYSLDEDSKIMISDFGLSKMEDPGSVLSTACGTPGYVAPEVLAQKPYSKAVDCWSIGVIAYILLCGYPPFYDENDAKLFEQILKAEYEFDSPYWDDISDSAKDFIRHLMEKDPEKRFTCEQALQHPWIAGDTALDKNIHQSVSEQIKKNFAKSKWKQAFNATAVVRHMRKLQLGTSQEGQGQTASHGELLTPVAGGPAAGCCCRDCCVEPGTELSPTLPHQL
- Assay info: KINOMEscan competition binding
- Conditions: compound 1.0 µM
Property: kinase still bound, per cent of control; scope: individual molecules
// units = %; emit number, no label

| Molecule | kinase still bound, per cent of control (%) |
| --- | --- |
| CN(C)C/C=C/C(=O)Nc1cccc(C(=O)Nc2ccc(Nc3nccc(/C(C#N)=C4\Nc5ccccc5S4)n3)cc2)c1 | 100 |
| Cc1cc(NC(=O)c2cccc(NC(=O)/C=C/CN(C)C)c2)ccc1Nc1nccc(-c2cccnc2)n1 | 81 |
| CN(C)C/C=C/C(=O)Nc1cccc(C(=O)Nc2ccc(Nc3nccc(-c4cccnc4)n3)cc2)c1 | 100 |

As a next step, examine the molecule that follows.
### Prompt Supply kinase still bound, per cent of control measured with CaMK1 (human) (UniProt Q14012) for `CN(C)C/C=C/C(=O)Nc1cccc(C(=O)Nc2ccc(Nc3nccc(-c4c(-c5ccccc5)nn5ccccc45)n3)cc2)c1` .
### Response 100

====

- Study target: GRK1 (human) (UniProt Q15835)
- Assay info: KINOMEscan competition binding
- Conditions: compound 1.0 µM
Measurement type: kinase still bound, per cent of control
Please give the number followed by its unit.

A selection of reference data follows.
| Molecule | kinase still bound, per cent of control |
| --- | --- |
| CN(C)C/C=C/C(=O)Nc1cccc(C(=O)Nc2ccc(Nc3nccc(-c4cccnc4)n3)cc2)c1 | 100% |
| Cc1cc(NC(=O)c2cccc(NC(=O)/C=C/CN(C)C)c2)ccc1Nc1nccc(-c2cccnc2)n1 | 100% |

### Prompt State, in one line, measured kinase still bound, per cent of control of `CN(C)C/C=C/C(=O)Nc1cccc(C(=O)Nc2ccc(Nc3nccc(-c4c(-c5ccccc5)nn5ccccc45)n3)cc2)c1`
### Response 100%

### Prompt Determine from records and report kinase still bound, per cent of control for `CN(C)C/C=C/C(=O)Nc1cccc(C(=O)Nc2ccc(Nc3nccc(/C(C#N)=C4\Nc5ccccc5S4)n3)cc2)c1`
### Response 100%
